- test.protocol: chemical genetic growth profiling, strain panel (AID 1159580);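 also: tested at 20 µM; growth read once vehicle control cultures reached saturation at 30 °C; 1 = growth at the plate median or of vehicle wells; lower values mean less growth of the strain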
- study.conditions: S. cerevisiae deletion strains, growth OD, locus YER155C, strain BEM2 (second series), hits give low values
Out of some 5,500 compounds screened, about 2,000 (36%) were called active. Roughly 18% stayed inconclusive and do not appear here. This is one part of the list.
Exam item: assign true (1) to entries whose normalized growth is below 1 and false (0) to entries at or above 1. Note that a value of exactly 1 receives false (0).

{"columns": ["compound", "label.value"],
 "data": [
  ["CCn1cc(C(=O)O)c(=O)c2cc(F)c(N3CCNC(C)C3)c(F)c21 (configuration not stated)", "true (1)"],
  ["CCN(CC)Cc1ccc(Nc2ccnc3cc(Cl)ccc23)cc1O", "true (1)"],
  ["Cc1ncc(CNC(=O)N(CCCl)N=O)c(N)n1", "false (0)"],
  ["NS(=O)(=O)c1cc2c(cc1Cl)NC=NS2(=O)=O", "true (1)"],
  ["CCn1cc(C(=O)O)c(=O)c2cc(F)c(N3CCNCC3)nc21", "true (1)"]
]}

###

# Lookup of reported normalized growth keyed by entry
- test.protocol: chemical genetic growth profiling, strain panel (AID 1159580)
- study.conditions: S. cerevisiae deletion strains, growth OD, locus YOR144C, strain elg1, hits give low values
The campaign covered roughly 5,500 compounds. About 2,000 (36%) were called active. Another 18% or so got no clear call; they are omitted. The list shows a part of the results.

{"columns": ["compound", "normalized growth"],
 "data": [
  ["C=CCc1ccc(OC(=O)c2ccccc2)c(OC)c1", 0.981],
  ["COc1ccc(C(=O)O)cc1OC", 0.978],
  ["Cc1ncc(CNC(=O)N(CCCl)N=O)c(N)n1", 0.978],
  ["C#CCN(C)Cc1ccccc1", 1.01],
  ["CC1(C)S[C@@H]2[C@H](NC(=O)[C@H](N)c3ccccc3)C(=O)N2[C@H]1C(=O)O", 0.998],
  ["NCCC(O)C(=O)NC1CC(N)C(OC2OC(CN)C(O)C(O)C2N)C(OC2OC(CO)C(O)C2O)C1O (configuration not stated)", 0.995],
  ["NS(=O)(=O)c1cc2c(cc1Cl)NC=NS2(=O)=O", 0.998],
  ["C=CCc1ccc(O)c(OC)c1", 0.937],
  ["CNCCC(Oc1ccc(C(F)(F)F)cc1)c1ccccc1 (configuration not stated)", 0.995],
  ["c1ccc2c(c1)sc1ccccc12", 0.972],
  ["CC(C)NCC(O)COc1cccc2[nH]ccc12 (configuration not stated)", 0.992],
  ["COc1ccc(-c2coc3cc(O)ccc3c2=O)c(OC)c1O", 0.988]
]}

###

# Lookup of reported normalized growth keyed by entry
- test.protocol: chemical genetic growth profiling, strain panel (AID 1159580);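 also: tested at 20 µM; growth read once vehicle control cultures reached saturation at 30 °C; 1 = growth at the plate median or of vehicle wells; lower values mean less growth of the strain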
- study.conditions: S. cerevisiae deletion strains, growth OD, locus YDR195W, strain ref2
Screen size: about 5,500 compounds; about 2,000 (36%) were called active. Not shown: some 18% with an inconclusive outcome. The list shows a part of the results.

{"columns": ["molecule", "normalized growth"],
 "data": [
  ["C[C@H]1COc2c(N3CCN(C)CC3)c(F)cc3c(=O)c(C(=O)O)cn1c23", 0.993],
  ["Cc1ncc(CNC(=O)N(CCCl)N=O)c(N)n1", 0.993],
  ["CCn1cc(C(=O)O)c(=O)c2cc(F)c(N3CCNC(C)C3)c(F)c21 (stereo not given)", 0.997],
  ["COc1cc([C@@H]2c3cc4c(cc3[C@@H](O)C3COC(=O)C32)OCO4)cc(OC)c1O (stereo not given in full)", 0.944],
  ["CO/N=C1/CN(c2nc3c(cc2F)c(=O)c(C(=O)O)cn3C2CC2)CC1CN (stereo not given)", 0.979],
  ["CCn1cc(C(=O)O)c(=O)c2cc(F)c(N3CCNCC3)nc21", 0.97],
  ["COc1c(N2CCNC(C)C2)c(F)cc2c(=O)c(C(=O)O)cn(C3CC3)c12 (stereo not given)", 1],
  ["Nc1ncn[nH]1", 1.01],
  ["COc1cc([C@@H]2c3cc4c(cc3C(OC3O[C@@H]5COC(C)O[C@H]5[C@H](O)[C@H]3O)C3COC(=O)[C@@H]32)OCO4)cc(OC)c1O (stereo not given in full)", 1.03],
  ["C=CC[C@]1(O)CCC2C3CCC4=CC(=O)CCC4=C3C=C[C@@]21C (stereo not given in full)", 1.05]
]}

###

- test.protocol: chemical genetic growth profiling, strain panel (AID 1159580);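 also: tested at 20 µM; growth read once vehicle control cultures reached saturation at 30 °C; 1 = growth at the plate median or of vehicle wells; lower values mean less growth of the strain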
- study.conditions: S. cerevisiae deletion strains, growth OD, locus YNL020C, strain ARK1, hits give low values
About 2,000 (36%) of roughly 5,500 compounds were called active. Not shown: some 18% with an inconclusive outcome. This is one part of the list.

{"columns": ["compound", "normalized growth"],
 "data": [
  ["Cc1nn(C)c(C(=O)Sc2ccc(OC(F)(F)F)cc2)c1[N+](=O)[O-]", 0.95],
  ["O=C(Nc1cccc(C(F)(F)F)c1)c1cncc(C#Cc2ccccc2)c1", 0.853],
  ["O=C(NCc1ccc(Cl)c(Cl)c1)c1cccnc1OCC(F)(F)F", 0.968],
  ["N#C/C(=N/Nc1ccc(F)cc1)S(=O)(=O)c1ccc(Cl)cc1", 0.946],
  ["O=C(Oc1cccc2[nH]ccc12)c1ccc(C(F)(F)F)cc1", 0.763],
  ["O=[N+]([O-])c1ccc(-c2noc(-c3ccno3)n2)o1", 0.101],
  ["O=[N+]([O-])c1ccc(ON=C2CCCCC2)c([N+](=O)[O-])c1", 0.881],
  ["O=C(c1csc(-c2ccc(Cl)cc2)c1)N1CCCCC1", 0.84],
  ["COc1cc(Cl)ccc1N/N=C(/C#N)C(N)=O", 0.11],
  ["Cc1c(C(=O)Sc2ccc(F)cc2F)sc2nc(C(F)(F)F)nn12", 0.0935],
  ["CC(C)c1ccc(COC(=O)Nc2ccc(CSc3ccc(Cl)cc3)o2)cc1", 0.919],
  ["Cc1ccc(S(=O)(=O)NC(=O)Nc2ccc(Sc3ccccc3)nc2Sc2ccccc2)cc1", 0.949],
  ["CC(=O)/C(C#N)=N\\Nc1ccc(F)cc1", 0.123],
  ["Cc1cccc(NC(=S)N/N=C\\c2ccc(F)cc2)c1", 0.853],
  ["N/C(CCSc1ccc(Cl)cc1)=N/OC(=O)Nc1ccc(Cl)cc1", 0.375],
  ["Oc1c(Cl)cc(Cl)cc1C=Nc1nc(-c2ccc3ccccc3c2)cs1", 0.684],
  ["N#C/C(=N/Nc1ccc(F)cc1)C(=O)c1ccccc1", 0.819],
  ["CC(C)(C)c1ccc(C(=N)SC(C(=O)C(F)(F)F)c2ccccc2)cc1 (stereo not given)", 0.884],
  ["CC(C)(C)c1ccc(N/N=C(\\C#N)C(N)=O)cc1", 0.0965],
  ["CCCN(CCC)C(=S)NC(=O)c1cccc([N+](=O)[O-])c1", 0.946]
]}

###

- test.protocol: chemical genetic growth profiling, strain panel (AID 1159580);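 also: tested at 20 µM; growth read once vehicle control cultures reached saturation at 30 °C; 1 = growth at the plate median or of vehicle wells; lower values mean less growth of the strain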
- study.conditions: S. cerevisiae deletion strains, growth OD, locus YNL307C, strain MCK1, hits give low values
Screen size: about 5,500 compounds; about 2,000 (36%) were called active. Not shown: some 18% with an inconclusive outcome. The list shows a part of the results.
# Lookup of reported normalized growth keyed by entry
parameter.measured: normalized growth

{"columns": ["compound", "parameter.measured", "observed.measurement"],
 "data": [
  ["CN1CC(=O)N=C1N", "normalized growth", 0.98],
  ["O=C(Oc1cc(O)cc2c1C[C@@H](OC(=O)c1cc(O)c(O)c(O)c1)[C@@H](c1cc(O)c(O)c(O)c1)O2)c1cc(O)c(O)c(O)c1", "normalized growth", 0.915],
  ["CNC(=O)O/N=C(\\C)SC", "normalized growth", 0.981],
  ["Oc1cc(O)c2c(c1)O[C@H](c1ccc(O)c(O)c1)[C@@H](O)C2", "normalized growth", 0.989],
  ["Oc1cc(O)c2c(c1)O[C@H](c1ccc(O)c(O)c1)[C@H](O)C2", "normalized growth", 0.977],
  ["CC(=O)Oc1cc(OC(C)=O)c2c(c1)O[C@H](c1ccc(OC(C)=O)c(OC(C)=O)c1)[C@H](OC(C)=O)C2", "normalized growth", 1.07],
  ["CC1(C)CCC[C@@]2(C)C1[C@@H](O)C[C@]1(C)C2CC[C@@H]2[C@@]3(C)CC[C@H](C(C)(C)O)[C@@H]3CC[C@@]21C (stereo not given in full)", "normalized growth", 0.996],
  ["O=C(O[C@@H]1Cc2c(O)cc(O)cc2O[C@@H]1c1cc(O)c(O)c(O)c1)c1cc(O)c(O)c(O)c1", "normalized growth", 0.99],
  ["C=C[C@@](C)(O)CCC1C(=C)C[C@H](OC(C)=O)C2C(C)(C)CCCC12C (stereo not given in full)", "normalized growth", 0.996],
  ["Cc1ccccc1C(OCCN(C)C)c1ccccc1 (stereo not given)", "normalized growth", 1.02],
  ["COc1ccc([C@H]2Oc3c(I)c(OC)cc(OC)c3C[C@@H]2O)cc1OC", "normalized growth", 1.01],
  ["CC1(C)S[C@@H]2[C@H](NC(=O)[C@H](N)c3ccccc3)C(=O)N2[C@H]1C(=O)O", "normalized growth", 1],
  ["C=C[C@@](C)(O)CCC1C(=C)CCC2[C@@](C)(CO)CCC[C@]12C (stereo not given in full)", "normalized growth", 1.03],
  ["CN(C)CCOC(c1ccc(Cl)cc1)c1ccccn1 (stereo not given)", "normalized growth", 1.01],
  ["COc1ccc2c(c1)OC1(O)COc3cc(OC)c(OC)cc3C1=C2 (stereo not given)", "normalized growth", 0.848],
  ["Oc1cc(O)c2c(c1)O[C@H](c1cc(O)c(O)c(O)c1)[C@H](O)C2", "normalized growth", 0.981],
  ["O=C1NCC2(CCN(CCc3ccccc3)CC2)O1", "normalized growth", 1.01],
  ["Clc1ccc(C(OCCN2CCCCC2)c2ccccc2)cc1 (stereo not given)", "normalized growth", 0.992],
  ["C=C1CCC2[C@](C)(CO)[C@H](O)CC[C@@]2(C)[C@@H]1C/C=C1/C(=O)OC[C@H]1O (stereo not given in full)", "normalized growth", 1.04],
  ["O=C(O[C@@H]1Cc2c(O)cc(O)cc2O[C@@H]1c1ccc(O)c(O)c1)c1cc(O)c(O)c(O)c1", "normalized growth", 1.01]
]}
